test system: ALP in normal human articular chondrocytes (NHACs); test: Alkaline Phosphatase (ALP) activity assay (staining and quantitation) in NHACs, prevention of chondrocyte hypertrophy; type: cell-based; settings: Chondrocyte, 288 h, value in parentheses, human IL-1 beta 10 ng/mL, 12 days, read-out: ALP in NHAC (% Efficacy)
quantity_measured: Emax (%)
Quick note: give the figure in %, leave out the unit.

molecule	unit	reported_value
O=C(Nc1ccc(C(F)(F)F)c(F)c1)[C@@H]1[C@@H](c2cccc(C(F)(F)F)c2)[C@H]2O[C@@H]1C[C@@H]2O (racemic) [Example 3]	%	77
N#Cc1ccc(NC(=O)[C@@H]2[C@@H](c3cccc(C(F)(F)F)c3)[C@H]3O[C@@H]2C[C@@H]3O)cc1C(F)(F)F (racemic) [Example 46]	%	50
O=C(Nc1ccc(N2CCOCC2)c(C(F)(F)F)c1)[C@@H]1[C@@H](c2cccc(C(F)(F)F)c2)[C@H]2O[C@@H]1C[C@@H]2O (racemic) [Example 23]	%	108
O=C(Nc1cc(C(F)(F)F)ccn1)[C@@H]1[C@@H](c2cccc(C(F)(F)F)c2)[C@H]2O[C@@H]1C[C@@H]2O (racemic) [Example 4]	%	90

Let us move to another entry and its Emax.
Would you mind telling me what Emax value was observed for O=C(Nc1cc(C(F)(F)F)ccc1F)[C@@H]1[C@@H](c2cccc(C(F)(F)F)c2)[C@H]2O[C@@H]1C[C@@H]2O (racemic) [Example 1] ?
60

###

system: ALP in normal human articular chondrocytes (NHACs); assay: Alkaline Phosphatase (ALP) activity assay (staining and quantitation) in NHACs, prevention of chondrocyte hypertrophy; type: cell-based; conditions: Chondrocyte, 288 h, human IL-1 beta 10 ng/mL, 12 days, Fast Blue RR staining, high content imaging, read-out: ALP in NHAC IC50
Measured IC50 by item

Solved cases (2 shown):
compound	target	reported_value
Cn1nc(C(F)(F)F)cc1[C@H]1[C@H]2O[C@H](C[C@@H]2O)[C@@H]1C(=O)Nc1cc(C(F)(F)F)ccc1F (racemic)	ALP in normal human articular chondrocytes (NHACs)	> 30 µM
O=C(Nc1cc(C(F)(F)F)c(Cl)cn1)[C@@H]1[C@@H](c2cccc(C(F)(F)F)c2)[C@H]2O[C@@H]1C[C@@H]2O (racemic)	ALP in normal human articular chondrocytes (NHACs)	> 30 µM

Please find the next compound below.
Name the reported IC50 value associated with the compound Cc1c(NC(=O)[C@@H]2[C@@H](c3cn(C)nc3C(F)(F)F)[C@H]3O[C@@H]2C[C@@H]3O)cccc1C(F)(F)F (racemic)
> 30 µM

###

test system: ALP in normal human articular chondrocytes (NHACs); test: Alkaline Phosphatase (ALP) activity assay (staining and quantitation) in NHACs, prevention of chondrocyte hypertrophy; type: cell-based; conditions: Chondrocyte, 288 h, value in parentheses, human IL-1 beta 10 ng/mL, 12 days, read-out: ALP in NHAC (% Efficacy)
# Emax annotations
The answer is to be given in %; state only the numeric part.

These solved cases illustrate the format of a correct answer.
compound	Emax (%)
Cc1cc(NC(=O)[C@@H]2[C@@H](c3cn(C(C)C)nc3C(F)(F)F)[C@H]3O[C@@H]2C[C@@H]3O)cc(C(F)(F)F)c1 (racemic)	20
Cn1cc([C@H]2[C@H]3O[C@H](C[C@@H]3O)[C@@H]2C(=O)Nc2cc(C(F)(F)F)ccc2C#N)c(C(F)(F)F)n1 (racemic)	96
COc1cc([C@H]2[C@H]3O[C@H](C[C@@H]3O)[C@@H]2C(=O)Nc2cccc(C(F)(F)F)c2)ccn1 (racemic)	13
CC(C)n1cc([C@H]2[C@H]3O[C@H](C[C@@H]3O)[C@@H]2C(=O)Nc2cc(C(F)(F)F)ccc2C#N)c(C(F)(F)F)n1 (racemic)	86
Cc1cc(NC(=O)[C@@H]2[C@@H](c3ccnc(C(F)(F)F)c3)[C@H]3O[C@@H]2C[C@@H]3O)cc(C(F)(F)F)c1 (racemic)	57

State the recorded Emax for this entry: N#Cc1ccc(C(F)(F)F)cc1NC(=O)[C@@H]1[C@@H](c2cccc(C(F)(F)F)c2)[C@H]2O[C@@H]1C[C@@H]2O (racemic)
92

###

Listed next: entries and their corresponding pIC50.
tested on: ALP in normal human articular chondrocytes (NHACs); assay: Alkaline Phosphatase (ALP) activity assay (staining and quantitation) in NHACs, prevention of chondrocyte hypertrophy; type: cell-based; conditions: Chondrocyte, 288 h, human IL-1 beta 10 ng/mL, 12 days, Fast Blue RR staining, high content imaging, read-out: ALP in NHAC IC50
The scale used: pIC50 is minus the common logarithm of the concentration in molar units.

Completed entries (count: 3):
compound	pIC50
Cc1cc(NC(=O)[C@@H]2[C@@H](c3cccc(C(F)(F)F)c3)[C@H]3O[C@@H]2C[C@@H]3O)cnc1C(F)(F)F (racemic) [Example 28]	5.22
Cn1cc([C@H]2[C@H]3O[C@H](C[C@@H]3O)[C@@H]2C(=O)Nc2cc(C(F)(F)F)ccc2C#N)c(C(F)(F)F)n1 (racemic) [Example 49]	6.28
Cn1cc([C@H]2[C@H]3O[C@H](C[C@@H]3O)[C@@H]2C(=O)Nc2ccc(C(F)(F)F)c(Cl)c2)c(C(F)(F)F)n1 (racemic) [Example 58]	5.00

Now look at this entry.
Write down the reported pIC50 of Cc1ccc(NC(=O)[C@@H]2[C@@H](c3ccnc(C(F)(F)F)c3)[C@H]3O[C@@H]2C[C@@H]3O)cc1C(F)(F)F (racemic) [Example 64] , test system: ALP in normal human articular chondrocytes (NHACs).
4.89

###

The entries below come with measured Emax values attached.
system: ALP in normal human articular chondrocytes (NHACs); experiment: Alkaline Phosphatase (ALP) activity assay (staining and quantitation) in NHACs, prevention of chondrocyte hypertrophy; assay type: cell-based; details: Chondrocyte, 288 h, value in parentheses, human IL-1 beta 10 ng/mL, 12 days, read-out: ALP in NHAC (% Efficacy)
Hi! Could you send only the number? It should be in %, unit omitted.

Take a look at these entries with their results.
compound	unit	Emax
O=C(Nc1ccc(Cl)c(C(F)(F)F)c1)[C@@H]1[C@@H](c2cccc(C(F)(F)F)c2)[C@H]2O[C@@H]1C[C@@H]2O (racemic)	%	102
COc1cc([C@H]2[C@H]3O[C@H](C[C@@H]3O)[C@@H]2C(=O)Nc2ccc(C(F)(F)F)cc2)ccn1 (racemic)	%	27
CCOc1cc(C(F)(F)F)cc(NC(=O)[C@@H]2[C@@H](c3cccc(C(F)(F)F)c3)[C@H]3O[C@@H]2C[C@@H]3O)n1 (racemic)	%	108
O=C(Nc1cccc(C(F)(F)F)c1F)[C@@H]1[C@@H](c2cccc(C(F)(F)F)c2)[C@H]2O[C@@H]1C[C@@H]2O (racemic)	%	105
Cc1ccc(NC(=O)[C@@H]2[C@@H](c3cccc(C(F)(F)F)c3)[C@H]3O[C@@H]2C[C@@H]3O)cc1C(F)(F)F (racemic)	%	102

Now look at this one.
I'd like to know its Emax. The compound in question is Cc1cc(NC(=O)[C@@H]2[C@@H](c3cc(C(F)(F)F)nn3C)[C@H]3O[C@@H]2C[C@@H]3O)cc(C(F)(F)F)c1 (racemic)
29
